Data origin: ChEMBL document CHEMBL1961873

TARGET_DESC: Serine/threonine-protein kinase TBK1 (Homo sapiens);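 further: values are mean inhibition of TBK1, screened as part of the GSK published kinase inhibitor set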
Sequence (whole entry): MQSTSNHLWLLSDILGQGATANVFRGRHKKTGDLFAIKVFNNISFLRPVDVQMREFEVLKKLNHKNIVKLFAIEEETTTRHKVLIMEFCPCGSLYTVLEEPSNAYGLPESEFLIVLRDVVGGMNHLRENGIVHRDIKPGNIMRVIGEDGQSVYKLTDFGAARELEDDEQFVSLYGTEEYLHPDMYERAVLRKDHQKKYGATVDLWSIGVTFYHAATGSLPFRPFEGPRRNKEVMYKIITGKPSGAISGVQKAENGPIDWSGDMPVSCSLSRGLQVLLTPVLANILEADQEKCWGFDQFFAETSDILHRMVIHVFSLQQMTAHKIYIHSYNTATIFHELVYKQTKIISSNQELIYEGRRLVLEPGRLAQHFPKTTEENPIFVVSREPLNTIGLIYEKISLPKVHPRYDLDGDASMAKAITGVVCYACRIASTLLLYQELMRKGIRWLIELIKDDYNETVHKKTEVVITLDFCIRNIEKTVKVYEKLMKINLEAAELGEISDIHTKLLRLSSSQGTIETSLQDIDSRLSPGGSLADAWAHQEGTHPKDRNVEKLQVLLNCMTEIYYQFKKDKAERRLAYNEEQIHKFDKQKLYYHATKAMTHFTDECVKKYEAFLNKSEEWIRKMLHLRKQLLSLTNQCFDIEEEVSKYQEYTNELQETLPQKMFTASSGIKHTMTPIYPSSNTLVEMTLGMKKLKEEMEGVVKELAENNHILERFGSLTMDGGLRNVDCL
CONDITIONS: at 1 µM
MEASUREMENT_LABEL: inhibition (%)
State the answer as a number, implicitly in %.

Below are worked cases with known answers.
# SMILES_NOTATION, TARGET_DESC, MEASUREMENT_LABEL, READOUT_VALUE
records = [
    ("COC(=O)Nc1nc2ccc(S(=O)(=O)c3ccc(NC(=O)Nc4cc(C(F)(F)F)ccc4F)cc3)cc2[nH]1", "Serine/threonine-protein kinase TBK1 (Homo sapiens)", "inhibition", 3.98),
    ("CCCN1CCC(c2ccc(Nc3nc(Nc4cc(F)ccc4C(N)=O)c4cc[nH]c4n3)c(OC)c2)CC1", "Serine/threonine-protein kinase TBK1 (Homo sapiens)", "inhibition", 10.2),
]

Read the next record carefully.
# input GET /values?readout=inhibition&item= COc1ccc(-c2oc3ncnc(N)c3c2-c2ccc(NC(=O)Nc3cc(C(F)(F)F)ccc3F)cc2)cc1
# output 3.95
